# system_name: FXa (Homo sapiens, UniProt P00742)
# Sequence (P00742 235-488 limits assumed): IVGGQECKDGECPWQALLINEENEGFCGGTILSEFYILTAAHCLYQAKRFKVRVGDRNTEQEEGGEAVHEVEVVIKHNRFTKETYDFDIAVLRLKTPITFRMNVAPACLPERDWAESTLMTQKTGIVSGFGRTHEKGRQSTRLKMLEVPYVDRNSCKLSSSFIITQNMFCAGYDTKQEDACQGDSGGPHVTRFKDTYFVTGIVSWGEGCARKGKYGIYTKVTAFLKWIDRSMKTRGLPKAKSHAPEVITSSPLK
# Sequence (P00742 41-179 limits assumed): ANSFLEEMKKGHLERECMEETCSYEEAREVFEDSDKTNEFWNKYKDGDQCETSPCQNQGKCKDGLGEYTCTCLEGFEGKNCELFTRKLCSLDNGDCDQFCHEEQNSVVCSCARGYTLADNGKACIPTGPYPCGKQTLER

chem_smiles	IC50 [nM]
CCCN(NC(=O)c1ccc(Cl)s1)C(=O)Nc1ccc(N2CCOCC2=O)cc1	390
C#CCN(NC(=O)c1ccc(Cl)s1)C(=O)Nc1ccc(N2CCOCC2=O)c(C)c1	570
Cc1cc(NC(=O)N(Cc2ccccc2)NC(=O)c2sccc2Cl)ccc1N1CCOCC1=O	87

Recorded values, source patent US7763611B2.
